- Assay system: Kappa-type opioid receptor (Homo sapiens)
- Experiment description: Displacement of [3H]-U69593 from human kappa opioid receptor expressed in CHO-K1 cell membranes at 10 uM incubated for 60 mins by TopCount scintillation counting method relative to control
- Recorded conditions: Membrane
Item-by-item account of Activity
Value kind: Activity (%)

{"Test smiles": "COc1c(C)c(O)c2c(c1C)O[C@H]1[C@H](OC)Oc3c(O)cccc3[C@]1(O)C2=O", "Value kind": "Activity", "Reported value": 41.8}
{"Test smiles": "COc1c(C)c(O)c2c(c1C)O[C@H]1COc3c(O)cccc3[C@]1(O)C2=O", "Value kind": "Activity", "Reported value": 38.9}
{"Test smiles": "CO[C@@H]1Oc2ccccc2-c2c1oc1cc(O)c(C)c(O)c1c2=O", "Value kind": "Activity", "Reported value": 48.8}
{"Test smiles": "COc1cc2c(c(O)c1C)C(=O)[C@@]1(O)c3cccc(O)c3O[C@@H](OC)[C@@H]1O2", "Value kind": "Activity", "Reported value": 28.9}
{"Test smiles": "COc1cc2c(c(O)c1C)C(=O)[C@@]1(O)c3cccc(OC)c3O[C@@H](OC)[C@@H]1O2", "Value kind": "Activity", "Reported value": 30.5}
{"Test smiles": "COc1cc2c(c(O)c1C)C(=O)[C@@]1(O)c3cccc(O)c3OC[C@@H]1O2", "Value kind": "Activity", "Reported value": 21.8}

* * *

Item-by-item account of Activity
- Assay system: Mu-type opioid receptor (Homo sapiens)
- Experiment description: Displacement of [3H]-DAMGO from human mu opioid receptor expressed in CHO-K1 cell membranes at 10 uM incubated for 60 mins by TopCount scintillation counting method relative to control
- Recorded conditions: Membrane
Value kind: Activity (%)

{"Test smiles": "COc1cc2c(c(O)c1C)C(=O)[C@@]1(O)c3cccc(O)c3O[C@@H](OC)[C@@H]1O2", "Assay system": "Mu-type opioid receptor (Homo sapiens)", "Reported value": 39.6}
{"Test smiles": "COc1cc2c(c(O)c1C)C(=O)[C@@]1(O)c3cccc(OC)c3O[C@@H](OC)[C@@H]1O2", "Assay system": "Mu-type opioid receptor (Homo sapiens)", "Reported value": 58.6}
{"Test smiles": "COc1c(C)c(O)c2c(c1C)O[C@H]1[C@H](OC)Oc3c(O)cccc3[C@]1(O)C2=O", "Assay system": "Mu-type opioid receptor (Homo sapiens)", "Reported value": 55.3}
{"Test smiles": "COc1cc2c(c(O)c1C)C(=O)[C@@]1(O)c3cccc(O)c3OC[C@@H]1O2", "Assay system": "Mu-type opioid receptor (Homo sapiens)", "Reported value": 50.9}
{"Test smiles": "CO[C@@H]1Oc2ccccc2-c2c1oc1cc(O)c(C)c(O)c1c2=O", "Assay system": "Mu-type opioid receptor (Homo sapiens)", "Reported value": 64.5}
{"Test smiles": "COc1c(C)c(O)c2c(c1C)O[C@H]1COc3c(O)cccc3[C@]1(O)C2=O", "Assay system": "Mu-type opioid receptor (Homo sapiens)", "Reported value": 45.9}
